Tested on: SMN2 minigene mRNA (SMN2-A minigene) in HEK293H cells
Assay: SMN2 minigene mRNA splicing RT-qPCR assay in cultured cells
Format: cell-based, human
Conditions: Homo sapiens, HEK293-H; concentration increasing full length SMN2 mRNA 1.5-fold relative to vehicle-treated cells; HEK293H cells with SMN2-A minigene, 24 hours, 7-point concentration data; read-out: EC1.5x for production of full length SMN2 mRNA

{"columns": ["substance_smiles", "EC (1.5-fold increase)"],
 "data": [
  ["CCc1cc(-c2cc(=O)n3cc(N4CCN(C5CCC5)CC4)ccc3n2)cn2cc(C)nc12", "< 0.1 µM"],
  ["CCc1nc(C)cn2nc(-c3cc(=O)n4cc(N5CCN(C(C)C)CC5)ccc4n3)cc12", "0.1 to 0.3 µM"],
  ["Cc1csc(-c2cc(=O)n3cc(N4CCNCC4)ccc3n2)n1", "1 to 3 µM"],
  ["Cc1cn2nc(-c3cc(=O)n4cc(C5CCN(CCO)CC5)ccc4n3)cc2c(C)n1", "< 0.1 µM"],
  ["COc1cc(-c2cc(=O)n3cc(N4CCN[C@@H](C)C4)ccc3n2)ccc1F", "0.3 to 1 µM"],
  ["Cc1cn2nc(-c3cc(=O)n4cc(C5=CCN(C6CCC6)CC5)ccc4n3)cc2c(C)n1", "< 0.1 µM"],
  ["Cc1cn2cc(-c3cc(=O)n4cc(N5CCN[C@@H](C)C5)ccc4n3)nc2cn1", "< 0.1 µM"],
  ["Cc1cn2nc(-c3cc(=O)n4cc(N5CCC(N(C)C)CC5)ccc4n3)cc2c(C)n1", "< 0.1 µM"],
  ["CCN1CCC(c2ccc3nc(-c4ccc5nc(C)oc5c4)cc(=O)n3n2)CC1", "0.1 to 0.3 µM"],
  ["CCN1CC=C(c2ccc3nc(-c4ccc5nn(C)cc5c4)cc(=O)n3c2)CC1", "< 0.1 µM"],
  ["Cc1cn2nc(-c3cc(=O)n4cc(C5CCN(CCO)CC5)cc(C)c4n3)cc2c(C)n1", "< 0.1 µM"],
  ["C[C@@H]1CN(c2cc(F)c3nc(-c4ccc(N(C)C)cc4)cc(=O)n3c2)CCN1", "3 to 30 µM"],
  ["Cc1cn2nc(-c3cc(=O)n4cc(N5CCC(N(C)CCO)CC5)cc(C)c4n3)cc2c(C)n1", "< 0.1 µM"],
  ["Cn1cc2cc(-c3cc(=O)n4cc(N5CCNCC5)ccc4n3)ccc2n1", "0.1 to 0.3 µM"],
  ["Cc1cn2nc(-c3cc(=O)n4cc(C5CCN(C(C)C)CC5)ccc4n3)cc2c(C)n1", "< 0.1 µM"],
  ["COc1ccc(-c2cc(=O)n3cc(OC4CCNCC4)ccc3n2)cc1OC", "1 to 3 µM"]
]}

====

Listing of recorded melting point by entry.

{"columns": ["compound", "melting point"],
 "data": [
  ["Cc1nc2ccc(-c3cc(=O)n4cc(N5CCN6CCC[C@@H]6C5)ccc4n3)cc2s1 [Compound 284]", "254 to 256 °C"],
  ["CCN(CC)C1CCN(c2ccc3nc(-c4ccc5nc(C)cn5c4)cc(=O)n3c2)CC1 [Compound 445]", "208 to 210 °C"],
  ["Cc1cn(-c2cc(=O)n3cc(N4CCNCC4)ccc3n2)cn1 [Cpd 179]", "204 to 206 °C"],
  ["COc1ccc(-c2cc(=O)n3cc(C4=CCN(C5CCC5)CC4)cc(C)c3n2)cc1OC [Compound 379]", "167 to 178 °C"],
  ["C[C@@H]1CN(c2ccc3nc(-c4cnc5c(ccn5C)c4)cc(=O)n3c2)C[C@H](C)N1 [Compound 130]", "265 to 268 °C"],
  ["Cc1cn2cc(-c3cc(=O)n4nc(C5CCN(CCO)CC5)ccc4n3)cc(Cl)c2n1 [Compound 526]", "255 to 257 °C"],
  ["COc1ccc(-c2cc(=O)n3cc(N4CCC(N)CC4)ccc3n2)cc1F [Compound 207]", "173 to 179 °C"],
  ["Cc1cn2cc(-c3cc(=O)n4cc(N5CCC(C)(N)CC5)ccc4n3)cc2c(C)n1 [Compound 731]", "244 to 246 °C"],
  ["Cn1cc2cc(-c3cc(=O)n4cc(C5=CCNCC5)ccc4n3)ccc2n1 [Compound 474]", "239 to 241 °C"],
  ["Cc1cn2nc(-c3cc(=O)n4cc(C5=CCN(C)CC5)ccc4n3)cc2cn1 [Compound 484]", "126 to 128 °C"],
  ["Cc1cn2cc(-c3ccc4nc(C5CCN(C)CC5)cc(=O)n4c3)ccc2n1 [Compound 460]", "227 to 230 °C"],
  ["O=c1cc(-c2ccc(OC(F)F)cc2)nc2ccc(N3CCNCC3)cn12 [Compound 59]", "131 to 133 °C"],
  ["CCc1nc(C)cn2nc(-c3cc(=O)n4cc(C5CCN(C(CO)CO)CC5)ccc4n3)cc12 [Cpd 694]", "228 to 230 °C"],
  ["CCc1nc(C)cn2nc(-c3cc(=O)n4cc(C5CCN(C6CC6)CC5)ccc4n3)cc12 [Compound 680]", "196 to 199 °C"],
  ["COc1ccc(-c2cc(=O)n3cc(C4=CCNCC4)ncc3n2)cc1OC [Cpd 402]", "205 to 208 °C"],
  ["CCc1cc(C2=CCNCC2)cn2c(=O)cc(-c3ccc(OC)c(OC)c3)nc12 [Compound 408]", "171 to 177 °C"],
  ["COc1ccc(-c2cc(=O)n3cc(C4=CCC(N(C)C)CC4)ccc3n2)cc1OC (centres unmarked) [Compound 367]", "162 to 164 °C"],
  ["Cc1cn2cc(-c3cc(=O)n4cc(N5CCNCC5)ccc4n3)cc(CO)c2n1 [Cpd 674]", "> 320 °C"],
  ["COc1ccc(-c2cc(=O)n3cc(N4CC[C@H](N(C)C)C4)ccc3n2)cc1OC [Compound 147]", "156 to 158 °C"],
  ["Cc1cc(-c2cc(=O)n3cc(N4CCN[C@H](C)C4)ccc3n2)cc2cn(C)nc12 [Compound 741]", "170 to 172 °C"],
  ["COc1ccc(-c2cc(=O)n3cc(O[C@H]4CCNC4)ccc3n2)cc1OC [Compound 236]", "164 to 166 °C"],
  ["CCc1nc(C)cn2nc(-c3cc(=O)n4cc(N5CCN(CCCF)CC5)ccc4n3)cc12 [Compound 665]", "240 to 242 °C"],
  ["COc1ccc(-c2cc(=O)n3cc(N4CCNCC4)ccc3c2)cc1OC [Cpd 106]", "170 to 172 °C"]
]}

====

System: SMN2 minigene mRNA (SMN2-A minigene) in HEK293H cells
Assay: SMN2 minigene mRNA splicing RT-qPCR assay in cultured cells
Type: cell-based, human
Conditions: Homo sapiens, HEK293-H; concentration increasing full length SMN2 mRNA 1.5-fold relative to vehicle-treated cells; HEK293H cells with SMN2-A minigene, 24 hours, 7-point concentration data; read-out: EC1.5x for production of full length SMN2 mRNA
Experimental: The reverse transcription-quantitative PCR-based (RT-qPCR) assay is used to quantify the level of the full length SMN2 minigene mRNA containing SMN2 exon 7 in a HEK293H cell line stably transfected with said minigene and treated with a test compound. Protocol. […] The increase of SMN2 minigene FL mRNA relative to that in cells treated with vehicle control is determined from real-time PCR data using a modified ΔΔCt method (as described in Livak and Schmittgen, Methods, 2001, 25:402-8). […]

{"columns": ["substance_smiles", "target_system", "EC (1.5-fold increase)"],
 "data": [
  ["Cc1cc(-c2cc(=O)n3cc(N4CCN(C)[C@@H](C)C4)ccc3n2)cc2cn(C)nc12", "SMN2 minigene mRNA (SMN2-A minigene) in HEK293H cells", "< 0.1 µM"],
  ["Cc1cn2nc(-c3cc(=O)n4cc(C5CCN(CCF)CC5)ccc4n3)cc2c(C)n1", "SMN2 minigene mRNA (SMN2-A minigene) in HEK293H cells", "< 0.1 µM"],
  ["CCCN1CC=C(c2ccc3nc(-c4ccc5c(cnn5C)c4)cc(=O)n3c2)CC1", "SMN2 minigene mRNA (SMN2-A minigene) in HEK293H cells", "0.1 to 0.3 µM"],
  ["COc1c(-c2cc(=O)n3cc(N4CCNCC4)ccc3n2)cccc1C(F)(F)F", "SMN2 minigene mRNA (SMN2-A minigene) in HEK293H cells", "1 to 3 µM"],
  ["CCc1nc(C)cn2nc(-c3cc(=O)n4cc(N5CCN(C6COC6)[C@H](C)C5)ccc4n3)cc12", "SMN2 minigene mRNA (SMN2-A minigene) in HEK293H cells", "0.3 to 1 µM"],
  ["CCc1nc(C)cn2nc(-c3cc(=O)n4cc(N5CCN(CCO)[C@H](C)C5)ccc4n3)cc12", "SMN2 minigene mRNA (SMN2-A minigene) in HEK293H cells", "< 0.1 µM"],
  ["COc1ccc(-c2cc(=O)n3cc(N4CCNCC4)ccc3n2)cc1C", "SMN2 minigene mRNA (SMN2-A minigene) in HEK293H cells", "0.3 to 1 µM"],
  ["Cc1nc2ccc(-c3cc(=O)n4cc(N5CCN6CCC[C@@H]6C5)ccc4n3)cc2o1", "SMN2 minigene mRNA (SMN2-A minigene) in HEK293H cells", "< 0.1 µM"],
  ["CNCC1CCN(c2ccc3nc(-c4ccc(OC)c(F)c4)cc(=O)n3c2)CC1", "SMN2 minigene mRNA (SMN2-A minigene) in HEK293H cells", "0.3 to 1 µM"],
  ["Cc1cn2nc(-c3cc(=O)n4cc(C5=CC(C)(C)NC(C)(C)C5)ccc4n3)cc2c(C)n1", "SMN2 minigene mRNA (SMN2-A minigene) in HEK293H cells", "< 0.1 µM"],
  ["CCN1CCN(c2ccc3nc(-c4ccc(OC)c(OC)c4)cc(=O)n3c2)CC1", "SMN2 minigene mRNA (SMN2-A minigene) in HEK293H cells", "1 to 3 µM"],
  ["CCc1nc(C)cn2nc(-c3cc(=O)n4cc(C5=CCNCC5)cc(C)c4n3)cc12", "SMN2 minigene mRNA (SMN2-A minigene) in HEK293H cells", "< 0.1 µM"],
  ["CCN1CCC(c2ccc3nc(-c4ccn5cc(C)nc5c4)cc(=O)n3c2)CC1", "SMN2 minigene mRNA (SMN2-A minigene) in HEK293H cells", "1 to 3 µM"],
  ["COc1ccc(-c2cc(=O)n3cc(N4CCC(N(C)C)CC4)ccc3n2)cc1OC", "SMN2 minigene mRNA (SMN2-A minigene) in HEK293H cells", "0.1 to 0.3 µM"],
  ["COc1ccc(-c2cc(=O)n3cc(N4C[C@H]5CCN(C)[C@H]5C4)ccc3n2)cc1F", "SMN2 minigene mRNA (SMN2-A minigene) in HEK293H cells", "1 to 3 µM"],
  ["Cc1cn2nc(-c3cc(=O)n4cc(CCCN(C)C)ccc4n3)cc2c(C)n1", "SMN2 minigene mRNA (SMN2-A minigene) in HEK293H cells", "0.1 to 0.3 µM"],
  ["COc1ccc(-c2cc(=O)n3cc(C4=CCN(C(C)C)CC4)cc(C)c3n2)cc1OC", "SMN2 minigene mRNA (SMN2-A minigene) in HEK293H cells", "0.3 to 1 µM"],
  ["CCc1nc(C)cn2nc(-c3cc(=O)n4cc(C5=CCNCC5)ccc4n3)cc12", "SMN2 minigene mRNA (SMN2-A minigene) in HEK293H cells", "< 0.1 µM"]
]}
